Entries and their inhibition in vivo at 20 mg/kg
Tested on: reverse passive Arthus reaction (RPA) in rats
Assay: Reverse passive Arthus reaction (RPA) in rats
Assay type: in vivo, Charles Foster rats of both sexes
Conditions: Rattus norvegicus, po, 4 h, dose 20.0 mg/kg p.o., one hour before RPA; edema vs untreated control
Structures can show the parent of a compound that is named as a salt.
Measured quantity: inhibition in vivo at 20 mg/kg (%)

[[record]]
molecule = "CCCc1cc(=O)c2c(O)cc(O)c(C3CCN(C)CC3O)c2o1 (single isomer, unassigned; (-)) [(-) n-C3 H7 H CH3 HCl.H2 O]"
measured_quantity = "inhibition in vivo at 20 mg/kg"
measurement_units = "%"
readout_number = 72.1

[[record]]
molecule = "CCCc1cc(=O)c2c(O)cc(O)c(C3CCN(C)CC3O)c2o1 (mixture of isomers) [(±) n-C3 H7 H CH3 HCl.H2 O]"
measured_quantity = "inhibition in vivo at 20 mg/kg"
measurement_units = "%"
readout_number = 65

[[record]]
molecule = "CN1CC[C@H](c2c(O)cc(O)c3c(=O)cc(-c4ccccn4)oc23)[C@H](O)C1 (relative stereo) [(±) 2-Pyridyl H CH3 HCl.1.5 H2 O]"
measured_quantity = "inhibition in vivo at 20 mg/kg"
measurement_units = "%"
readout_number = 90

[[record]]
molecule = "CN1CC[C@H](c2c(O)cc(O)c3c(=O)cc(-c4ccc(Cl)cc4Cl)oc23)[C@H](O)C1 (relative stereo)"
measured_quantity = "inhibition in vivo at 20 mg/kg"
measurement_units = "%"
readout_number = 76.1

[[record]]
molecule = "CN1CC[C@H](c2c(O)cc(O)c3c(=O)cc(-c4ccccc4)oc23)[C@H](O)C1 (relative stereo) [(±) Phenyl H CH3 HCl.2H2 O]"
measured_quantity = "inhibition in vivo at 20 mg/kg"
measurement_units = "%"
readout_number = 95.7

[[record]]
molecule = "Cc1cc(=O)c2c(O)cc(O)c(C3CCN(CC4CC4)CC3O)c2o1 (single isomer, unassigned; (-)) [(-) CH3 H [drawing 12] HCl.H2 O]"
measured_quantity = "inhibition in vivo at 20 mg/kg"
measurement_units = "%"
readout_number = 74

[[record]]
molecule = "CCc1cc(=O)c2c(O)cc(O)c(C3CCN(C)CC3O)c2o1 (mixture of isomers) [(±) C2 H5 H CH3 HCl.1.5 H2 O]"
measured_quantity = "inhibition in vivo at 20 mg/kg"
measurement_units = "%"
readout_number = 77.1

[[record]]
molecule = "CN1CC[C@H](c2c(O)cc(O)c3c(=O)cc(-c4ccc(F)cc4)oc23)[C@H](O)C1 (relative stereo) [(±) p-Fluorophenyl H CH3 HCl.H2 O]"
measured_quantity = "inhibition in vivo at 20 mg/kg"
measurement_units = "%"
readout_number = 86.2

[[record]]
molecule = "Cc1cc(=O)c2c(O)cc(O)c([C@H]3CCN(C)C[C@H]3O)c2o1 (relative stereo) [(±) CH3 H CH3 HCl]"
measured_quantity = "inhibition in vivo at 20 mg/kg"
measurement_units = "%"
readout_number = 39.2

